Where do the numbers come from? From patent US20260364182A1.

Target or test system: SARS-CoV-2 PLpro (Severe acute respiratory syndrome coronavirus 2)
Construct: The papain-like protease domain (PLpro) of SARS-CoV-2 (SCoV2)
Experiment notes: IC50 inhibitory assay, fluorogenic substrate cleavage by PLpro
Format: biochemical
Experimental context: SARS-CoV-2 PLpro 0.1 μM; substrate 10 μM; pH 8.1; 37 °C; 10 min preincubation
Result type: IC50

[
  {
    "Molecule": "Cc1ccc(NC2CCNCC2)cc1C(=O)N[C@H](C)c1cccc(-c2ccc(CNC(=O)CCCCCNc3ccc4c(c3)C(=O)N(C3CCC(=O)NC3=O)C4=O)s2)c1 (stereo partly shown) [Compound C10778D]",
    "IC50": "< 1 µM"
  },
  {
    "Molecule": "C[C@H](c1cccc2ccccc12)N1CCC(C(=O)NCc2cc(F)cc(NC(=O)N3CCN(CCOc4ccc5c(c4)C(=O)N(C4CCC(=O)NC4=O)C5=O)CC3)c2)CC1 (stereo partly shown)",
    "IC50": "< 1 µM"
  },
  {
    "Molecule": "Cc1ccc(NC(=O)CCCCOc2cc(-c3scnc3C)ccc2CNC(=O)[C@@H]2C[C@@H](O)CN2C(=O)[C@@H](NC(=O)C2(F)CC2)C(C)(C)C)cc1C(=O)N[C@H](C)c1cccc2ccccc12",
    "IC50": "> 25 µM"
  },
  {
    "Molecule": "Cc1ccc(NC2CCNCC2)cc1C(=O)N[C@H](C)c1cccc(-c2ccc(CNC(=O)CCCNc3cccc4c3C(=O)N(C3CCC(=O)NC3=O)C4=O)s2)c1 (stereo partly shown) [Compound C10778I]",
    "IC50": "< 1 µM"
  },
  {
    "Molecule": "C[C@H](c1cccc2ccccc12)N1CCC(C(=O)NCc2cc(F)cc(NC(=O)N3CCN(CCOCCOCCOc4cccc5c4C(=O)N(C4CCC(=O)NC4=O)C5=O)CC3)c2)CC1 (stereo partly shown)",
    "IC50": "< 10 µM"
  }
]

Respectfully, I request IC50 for each entry included below.
1. Cc1ccc(NC(=O)CCOCCOCCOCCNc2ccc3c4c(cccc24)C(=O)N(C2CCC(=O)NC2=O)C3=O)cc1C(=O)N[C@H](C)c1cccc2ccccc12 (stereo partly shown)
2. Cc1ccc(NC(=O)CCOCCOCCOCCNc2cccc3c2C(=O)N(C2CCC(=O)NC2=O)C3=O)cc1C(=O)N[C@H](C)c1cccc2ccccc12 (stereo partly shown)
3. C[C@H](c1cccc2ccccc12)N1CCC(C(=O)NCc2cc(F)cc(NC(=O)N3CCN(CCOCCOCCC(=O)N4CCN(c5ccc(N6CCC(=O)NC6=O)cc5)CC4)CC3)c2)CC1

OUTPUT:
< 10 µM
< 10 µM
< 10 µM

Respectfully, I request IC50 for each entry included below.
1. C[C@H](c1cccc2ccccc12)N1CCC(C(=O)NCc2cc(F)cc(NC(=O)N3CCN(CCCCCCCCOc4cccc5c4C(=O)N(C4CCC(=O)NC4=O)C5=O)CC3)c2)CC1 (stereo partly shown)
2. C[C@H](c1cccc2ccccc12)N1CCC(C(=O)NCc2cc(F)cc(NC(=O)N3CCN(CCNC(=O)COc4ccc(C5CCC(=O)NC5=O)cc4)CC3)c2)CC1 (stereo partly shown)
3. Cc1ccc(NC(=O)CCNc2cccc3c2C(=O)N(C2CCC(=O)NC2=O)C3=O)cc1C(=O)N[C@H](C)c1cccc2ccccc12 (stereo in doubt)
4. C[C@H](c1cccc2ccccc12)N1CCC(C(=O)NCc2cc(F)cc(NC(=O)N3CCN(CCCCCCNC(=O)COc4ccc(C5CCC(=O)NC5=O)cc4)CC3)c2)CC1 (stereo partly shown)
5. Cc1ccc(NC(=O)CCCCCCCCC(=O)N[C@H](C(=O)N2C[C@H](O)C[C@H]2C(=O)NCc2ccc(-c3scnc3C)cc2)C(C)(C)C)cc1C(=O)N[C@H](C)c1cccc2ccccc12
6. C[C@H](c1cccc2ccccc12)N1CCC(C(=O)NCc2cc(F)cc(NC(=O)N3CCN(CCCCOc4cccc5c4C(=O)N(C4CCC(=O)NC4=O)C5=O)CC3)c2)CC1 (stereo partly shown)
7. Cc1ccc(NC(=O)CCCCCNc2cccc3c2CN(C2CCC(=O)NC2=O)C3=O)cc1C(=O)N[C@H](C)c1cccc2ccccc12 (stereo partly shown)
8. Cc1ncsc1-c1ccc(CNC(=O)[C@@H]2C[C@@H](O)CN2C(=O)[C@@H](NC(=O)CCCCN2CCN(C(=O)Nc3cc(F)cc(CNC(=O)C4CCN([C@H](C)c5cccc6ccccc56)CC4)c3)CC2)C(C)(C)C)cc1

OUTPUT:
["> 25 µM", "< 10 µM", "> 25 µM", "< 10 µM", "> 25 µM", "< 10 µM", "10 to 25 µM", "< 10 µM"]

Respectfully, I request IC50 for each entry included below.
1. Cc1ccc(NC(=O)CCOCCOCCNc2cccc3c2C(=O)N(C2CCC(=O)NC2=O)C3=O)cc1C(=O)N[C@H](C)c1cccc2ccccc12 (stereo partly shown)
2. C[C@H](c1cccc2ccccc12)N1CCC(C(=O)NCc2cc(F)cc(NC(=O)N3CCN(CCCCCCOc4cccc5c4C(=O)N(C4CCC(=O)NC4=O)C5=O)CC3)c2)CC1 (stereo partly shown)
3. C[C@H](c1cccc2ccccc12)N1CCC(C(=O)NCc2cc(F)cc(NC(=O)N3CCN(CCOc4cccc5c4C(=O)N(C4CCC(=O)NC4=O)C5=O)CC3)c2)CC1 (stereo partly shown)

OUTPUT:
1: < 10 µM; 2: < 10 µM; 3: < 1 µM
